- Tested on: Escherichia coli TOP10;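 further: peptides expressed intracellularly from a pBAD plasmid library in pooled LB shake-flask culture, induced with 0.3% L-arabinose, DNA abundance read by NGS, three biological replicates, DESeq2 with apeglm shrinkage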
- TEST_NAME: shrunken log2 fold change of peptide-encoding DNA abundance (4.5 h post-induction vs induction); higher = less antimicrobial activity (less host growth inhibition)
- CONDITION_SET: time post-induction: 4.5 h; library: site-saturation at positions 5, 18, 19, 20
Reported shrunken log2 fold change values are given for each entry in this list.
Respond with the number and no other words.

sequence_text=RRIRDRPPRLPRPRPRPVEHPRP meas_value=0.115

Q: Give shrunken log2 fold change for this entry on Escherichia coli TOP10: `RRIRNRPPRLPRPRPRPYYHPRP`
Ans: -0.781

Q: Give shrunken log2 fold change for this entry on Escherichia coli TOP10: `RRIRYRPPRLPRPRPRPQAAPRP`
Ans: -0.195

Q: Give shrunken log2 fold change for this entry on Escherichia coli TOP10: `RRIRPRPPRLPRPRPRPDEKPRP`
Ans: -0.0591

Q: Give shrunken log2 fold change for this entry on Escherichia coli TOP10: `RRIRMRPPRLPRPRPRPFYCPRP`
Ans: -0.118

Q: Give shrunken log2 fold change for this entry on Escherichia coli TOP10: `RRIRYRPPRLPRPRPRPTCIPRP`
Ans: -0.257

Q: Give shrunken log2 fold change for this entry on Escherichia coli TOP10: `RRIRSRPPRLPRPRPRPFVIPRP`
Ans: -0.206

Q: Give shrunken log2 fold change for this entry on Escherichia coli TOP10: `RRIRKRPPRLPRPRPRPQTCPRP`
Ans: -0.132

Q: Give shrunken log2 fold change for this entry on Escherichia coli TOP10: `RRIRERPPRLPRPRPRPTHLPRP`
Ans: 0.229

Q: Give shrunken log2 fold change for this entry on Escherichia coli TOP10: `RRIRQRPPRLPRPRPRPDRMPRP`
Ans: -0.0981

Q: Give shrunken log2 fold change for this entry on Escherichia coli TOP10: `RRIRVRPPRLPRPRPRPFQTPRP`
Ans: -0.214
